- target_entity: GlyT2 S696A mutant (Homo sapiens, UniProt Q9Y345, S696A)
- Sequence (Q9Y345 whole entry S696A): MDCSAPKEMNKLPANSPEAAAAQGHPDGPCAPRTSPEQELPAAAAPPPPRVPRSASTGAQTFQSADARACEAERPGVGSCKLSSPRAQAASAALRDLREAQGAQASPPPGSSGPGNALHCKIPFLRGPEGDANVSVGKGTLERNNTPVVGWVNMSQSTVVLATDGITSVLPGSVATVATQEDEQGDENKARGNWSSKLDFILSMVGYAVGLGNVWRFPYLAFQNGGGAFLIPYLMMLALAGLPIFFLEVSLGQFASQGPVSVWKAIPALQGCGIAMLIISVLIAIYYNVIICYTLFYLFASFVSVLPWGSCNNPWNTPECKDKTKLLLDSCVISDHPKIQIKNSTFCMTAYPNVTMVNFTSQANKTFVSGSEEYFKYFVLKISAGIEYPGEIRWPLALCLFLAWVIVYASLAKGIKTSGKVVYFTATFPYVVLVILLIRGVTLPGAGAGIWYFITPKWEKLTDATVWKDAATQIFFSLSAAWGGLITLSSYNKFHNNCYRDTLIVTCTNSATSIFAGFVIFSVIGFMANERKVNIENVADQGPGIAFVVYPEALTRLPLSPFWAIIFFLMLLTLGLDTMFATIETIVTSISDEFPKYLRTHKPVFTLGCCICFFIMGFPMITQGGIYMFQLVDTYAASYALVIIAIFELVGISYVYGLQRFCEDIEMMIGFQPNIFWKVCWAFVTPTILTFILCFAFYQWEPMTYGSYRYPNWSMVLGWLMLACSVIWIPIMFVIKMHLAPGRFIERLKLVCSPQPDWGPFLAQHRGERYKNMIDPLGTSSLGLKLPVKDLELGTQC
- conditions: read-out: Glycine EC50; glycine transport, GlyT2 S696A (vestibule allosteric site)
readout_kind: pEC50
Give bare numbers, as −log10 of the molar value.

IN: Fill in pEC50 for record `NCC(=O)O`
OUT: 4.59

----------
- target_entity: GlyT2 P561S mutant (Homo sapiens, UniProt Q9Y345, P561S)
- Construct: expressed in transfected cells; host or cells: Xenopus laevis oocytes (cRNA injection)
- Sequence (Q9Y345 whole entry P561S): as the sequence (Q9Y345 whole entry S696A) above, with P561S, A696S counted along it
- method_notes: Glycine transport currents, two electrode voltage clamp, oocytes expressing GlyT2 P561S
- Type: cell-based
- conditions: GlyT2 P561S; mean ± SEM
readout_kind: % Max. inhibition

Here's what some known entries look like.
molecule	target_entity	readout_kind	value
CCCCCCCC/C=C\CCCCCCCC(=O)N[C@@H](CCCCN)C(=O)O	GlyT2 P561S mutant (Homo sapiens, UniProt Q9Y345, P561S)	% Max. inhibition	71.5 ± 4.8 (p=0.0758) %
CCCCCCCC/C=C\CCCCCCCC(=O)N[C@@H](CO)C(=O)O	GlyT2 P561S mutant (Homo sapiens, UniProt Q9Y345, P561S)	% Max. inhibition	80.3 ± 7.3 (p=0.7241) %
CCCCCCCC/C=C\CCCCCCCC(=O)O[C@H](CC(=O)[O-])C[N+](C)(C)C [oleoyl L-Carnitine, reference compound]	GlyT2 P561S mutant (Homo sapiens, UniProt Q9Y345, P561S)	% Max. inhibition	31.6 ± 5.2 (p=0.0001) %

Batch of 4 molecules: report % Max. inhibition for each.
1. CCCCCCCC/C=C\CCCCCCCC(=O)N[C@@H](CC(=O)O)C(=O)O [oleoyl l-Aspartate]
2. CCCCCCCC/C=C\CCCCCCCC(=O)N[C@H](C(=O)O)C(C)C
3. CCCCCCCC/C=C\CCCCCCCC(=O)NCC(=O)O [N-oleoyl Glycine, reference compound]
4. CCCCCCCC/C=C\CCCCCCCC(=O)N[C@@H](Cc1c[nH]c2ccccc12)C(=O)O

OUT:
58.2 ± 4.7 (p=0.0954) %
94.5 ± 4.7 (p=0.9462) %
62.1 ± 4.8 (p=0.9242) %
61.4 ± 4.2 (p=0.0001) %
